test system: aqueous buffer solubility, pH 5.0/6.2/7.4; experiment: compound solubility, pH 5.0, 6.2, 7.4 – biophysical, set 2, ADME assay (AID 624323); details: measured here: solubility at pH 6.2; at 100 µM; stronger effect = higher value
quantity: log10(solubility) (log10 of the value in µg/mL)
Quick note: numbers are log10 of solubility, with µg/mL as the unit.

(Q) Annotate the compound "O=C(COC(=O)C12CC3CC(CC(C3)C1)C2)NCc1ccco1" with its measured log10(solubility).
(A) 0.62

(Q) Annotate the compound "CN(C)c1nc(N)nc(CSc2nnnn2-c2cccc3ccccc23)n1" with its measured log10(solubility).
(A) 0.00

(Q) Annotate the compound "O=c1c2ccccc2[se]n1-c1ccccc1" with its measured log10(solubility).
(A) 0.78

(Q) Annotate the compound "O=S1(=O)Nc2c(ccc3cccnc23)-c2ccccc21" with its measured log10(solubility).
(A) 1.13

(Q) Annotate the compound "CCOc1ccc(NC(=S)N2CCC(C(O)(c3ccccc3)c3ccccc3)CC2)cc1" with its measured log10(solubility).
(A) -0.10

(Q) Annotate the compound "Cc1ccc(-n2c(N)c(C#N)c(-c3ccccc3)c(C#N)c2=O)cc1" with its measured log10(solubility).
(A) -0.03

(Q) Annotate the compound "COC(=O)c1ccccc1NC(=O)c1ccc(F)cc1" with its measured log10(solubility).
(A) -0.05

(Q) Annotate the compound "C/C=C/Cn1c(SCCCc2ccccc2)nc2c1c(=O)[nH]c(=O)n2C" with its measured log10(solubility).
(A) -0.51

(Q) Annotate the compound "Cc1ccc(S(=O)(=O)n2c(N)nc3ccccc32)cc1" with its measured log10(solubility).
(A) 0.38

(Q) Annotate the compound "Cn1nnnc1Sc1ncnc2scc(-c3ccccc3)c12" with its measured log10(solubility).
(A) 0.49

(Q) Annotate the compound "O=C(c1ccccn1)N(Cc1cccs1)C1(C(=O)NC2CCCCC2)CCCCC1" with its measured log10(solubility).
(A) 1.18

(Q) Annotate the compound "Cc1ccnc(NC(=O)CCCOc2cc(=O)n(C)c3ccccc23)c1" with its measured log10(solubility).
(A) 0.97

(Q) Annotate the compound COc1ccc(C2CC(c3ccccc3)=NN2c2ccc(S(N)(=O)=O)cc2)cc1 (stereo not given) with its measured log10(solubility).
(A) -1.40

(Q) Annotate the compound COc1ccc(C2c3c(ncn(CCN4CCOCC4)c3=N)Oc3ccc4ccccc4c32)cc1OC (stereo not given) with its measured log10(solubility).
(A) 1.61

(Q) Annotate the compound "COc1cc(NC(=O)c2cc(C3CC3)on2)c(OC)cc1Cl" with its measured log10(solubility).
(A) -1.30

(Q) Annotate the compound "CCc1nnc(NC(=O)c2ccc(NS(=O)(=O)c3ccccc3)cc2)s1" with its measured log10(solubility).
(A) -0.80

(Q) Annotate the compound "CN(C)C1=C(Cl)C(=O)N(c2ccc(Cl)c(Cl)c2)C1=O" with its measured log10(solubility).
(A) -0.92

(Q) Annotate the compound "Cc1ccc(NC(=O)CCC(=O)N/N=C/c2ccc([N+](=O)[O-])o2)cc1C" with its measured log10(solubility).
(A) -0.52

(Q) Annotate the compound "N#C/C(=C\c1ccc([N+](=O)[O-])o1)c1nc2ccccc2[nH]1" with its measured log10(solubility).
(A) -0.92

(Q) Annotate the compound "COc1ccc(OC)c(S(=O)(=O)Nc2cnc3ccccc3c2)c1" with its measured log10(solubility).
(A) 1.41

(Q) Annotate the compound "COc1cccc(-c2nc(-c3ccc(NC(=O)Cc4ccccc4OC)cc3)no2)c1" with its measured log10(solubility).
(A) -1.30

(Q) Annotate the compound "COc1nc(-c2ccccc2)nnc1-c1ccccc1" with its measured log10(solubility).
(A) -0.11

(Q) Annotate the compound "COc1ccc(OC)c(-c2nnc3n2N=C(c2ccc(OC)c(OC)c2)CS3)c1" with its measured log10(solubility).
(A) 1.47

(Q) Annotate the compound CCOC(=O)C(C)Oc1cccc2c(=O)n(CC(=O)Nc3ccc4c(c3)OCCO4)ccc12 (stereo not given) with its measured log10(solubility).
(A) -0.51

(Q) Annotate the compound "CCOc1ccc(-c2nc(-c3ccncc3)no2)cc1OCC" with its measured log10(solubility).
(A) 0.11

(Q) Annotate the compound "O=c1[nH]c(SCc2ccc(Cl)cc2)nc2c1CCC2" with its measured log10(solubility).
(A) -0.28

(Q) Annotate the compound "O=c1c(O)c(-c2cc(O)c(O)c(O)c2)oc2cc(O)cc(O)c12" with its measured log10(solubility).
(A) 0.72

(Q) Annotate the compound COc1ccc(N(C(=O)CCl)C(C(=O)NCCc2ccccc2)c2cccs2)cc1Cl (stereo not given) with its measured log10(solubility).
(A) -0.07
